So I've got a bunch of binders here, and I need their Apical domain:HSA values.
Target: T1, apical domain of human CD71 (human, UniProt P02786 189-383, limits assumed)
T1 construct: domain: apical domain; Screen 4 panned on human apical domains, the ELISA text says only 'apical domain'
T1 sequence (P02786 189-383 limits assumed): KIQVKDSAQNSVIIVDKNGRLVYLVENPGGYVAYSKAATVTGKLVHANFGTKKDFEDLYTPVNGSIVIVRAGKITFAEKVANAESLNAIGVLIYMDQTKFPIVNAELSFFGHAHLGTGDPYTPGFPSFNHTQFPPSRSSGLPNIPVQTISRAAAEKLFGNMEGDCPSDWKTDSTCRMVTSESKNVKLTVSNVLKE
Test: primary ELISA, RLU over HSA

>  <binder>
CD71-binding FN3 domain of SEQ ID NO: 450 (designed binder) MLPAPKNLVVSRVTEDSARLSWTAPDAAFDSFFIGYLEPQPPGEAISLFVPGSERSYDLTGLKPGTEYNVTIQGVKGGFPSEPLAAKFTT

>  <reportedValue>
253

$$$$

Now examine the next entry.
Tell me the measured Apical domain:HSA of CD71-binding FN3 domain of SEQ ID NO: 481 (designed binder) MLPAPKNLVVSRVTEDSARLSWTAPDAAFDSFFIGYLEPQPPGEAITLYVPGSERSYDMTGLKPGTEYNVTIQGVKGGFPSLPLQAHFTT , please.
803
